This collection of values is drawn from ChEMBL document CHEMBL3045733.

Test Description: Inhibition of peptide deformylase using N-formylmethionine-alanine-serineas substrate incubated for 10 min before substrate addition by PDF-FDH coupled assay
Measured Endpoint: pIC50
Could you keep your reply to the number by itself?

Hello, please tell me recorded pIC50 for this one: CCCC[C@@H](C(=O)N1CCC[C@H]1C(=O)NCC(O)CC)[C@H](F)C(=O)NO (some centres undefined) 8.15

Hello, please tell me recorded pIC50 for this one: `CC(C)CCN(CC(=O)NO)C(=O)N1CCC[C@H]1C(=O)Nc1ccc2c(c1)OCO2` 7.96

Hello, please tell me recorded pIC50 for this one: `CCCC[C@@H](C(=O)N1CCC[C@H]1C(=O)OC(C)(C)C)[C@@H](O)C(=O)NO` 8.22

Hello, please tell me recorded pIC50 for this one: `CCCCCNC(=O)[C@@H]1CCCN1C(=O)[C@H](CCCC)[C@H](O)C(=O)NO` 8.1

Hello, please tell me recorded pIC50 for this one: `CCCC[C@@H](C(=O)N1CCC[C@H]1C(=O)NCCC)[C@H](O)C(=O)NO` 8.1

Hello, please tell me recorded pIC50 for this one: `CCCC[C@@H](C(=O)N1CCC[C@H]1C(=O)NC(C)C)[C@H](O)C(=O)NO` 8.15

Hello, please tell me recorded pIC50 for this one: `CCCC[C@@H](C(=O)N1CCC[C@H]1C(=O)N1CCOCC1)[C@H](F)C(=O)NO` 7.89

----------
Test Description: Inhibition of peptide deformylase using N-formylmethionine-alanine-serineas substrate incubated for 10 min before substrate addition by PDF-FDH coupled assay
Some compounds, each annotated with its measured pIC50.

Given Smiles	pIC50
O=C(CN(CCC1CCCC1)C(=O)N1CCC[C@H]1C(=O)Nc1ncccn1)NO	7.68

Hello, please tell me recorded pIC50 for this one: `CCCC[C@@H](C(=O)N1CCC[C@H]1C(=O)NC1CCCCC1)[C@H](F)C(=O)NO` 8.04

Hello, please tell me recorded pIC50 for this one: `CCCC[C@@H](C(=O)N1CCC[C@H]1C(=O)NC)[C@@H](F)C(=O)NO` 7.57

Hello, please tell me recorded pIC50 for this one: `O=C(CN(CCC1CCCC1)C(=O)N1CCC[C@H]1C(=O)Nc1nccc(-c2ccccc2)n1)NO` 7.17

Hello, please tell me recorded pIC50 for this one: `CNC(=O)[C@@H]1CCCN1C(=O)N(CCC(C)C)CC(=O)NO` 7.21

Hello, please tell me recorded pIC50 for this one: `CCc1nnc(NC(=O)[C@@H]2CCCN2C(=O)N(CCC(C)C)CC(=O)NO)s1` 7.74

----------
Test Description: Inhibition of peptide deformylase using N-formylmethionine-alanine-serineas substrate incubated for 10 min before substrate addition by PDF-FDH coupled assay
Some compounds, each annotated with its measured pIC50.
Could you keep your reply to the number by itself?

Hello, please tell me recorded pIC50 for this one: `CCCC[C@@H](C(=O)N1CCC[C@H]1C(=O)N1CCN(c2ccccc2F)CC1)[C@H](F)C(=O)NO` 8.22

Hello, please tell me recorded pIC50 for this one: `CCCC[C@H](CC(=O)NO)C(=O)N1CCC[C@H]1C(=O)Nc1nc2ccccc2s1` 8.52

Hello, please tell me recorded pIC50 for this one: `O=C(CN(CCC1CCCC1)C(=O)N1CCC[C@H]1C(=O)Nc1ccc2c(c1)OCO2)NO` 8.1

----------
Test Description: Inhibition of peptide deformylase using N-formylmethionine-alanine-serineas substrate incubated for 10 min before substrate addition by PDF-FDH coupled assay
Some molecules, each annotated with its measured pIC50.

Example entries and their recorded answers appear below.
Given Smiles	pIC50
CCCC[C@H](CC(=O)NO)C(=O)N1CCC[C@H]1C(=O)NC	8
CCCC[C@@H](C(=O)N1CCC[C@H]1C(=O)N1CCCCC1)[C@H](F)C(=O)NO	7.66

Now let's try a different one.
Hello, please tell me recorded pIC50 for this one: `Cc1nnc(NC(=O)[C@@H]2CCCN2C(=O)N(CCC(C)C)CC(=O)NO)s1` 7.92

----------
Test Description: Inhibition of peptide deformylase using N-formylmethionine-alanine-serineas substrate incubated for 10 min before substrate addition by PDF-FDH coupled assay
Some molecules, each annotated with its measured pIC50.
Could you keep your reply to the number by itself?

Hello, please tell me recorded pIC50 for this one: `CCCC[C@@H](C(=O)N1CC[C@H]1C(=O)NCCC)[C@H](O)C(=O)NO` 8.17

----------
Test Description: Inhibition of peptide deformylase using N-formylmethionine-alanine-serineas substrate incubated for 10 min before substrate addition by PDF-FDH coupled assay
Measured Endpoint: pIC50
Could you keep your reply to the number by itself?

Example entries and their recorded answers appear below.
Given Smiles	Recorded Value
CCCC[C@@H](C(=O)N1CCC[C@H]1C(=O)N1CCN(c2ncccn2)CC1)[C@H](F)C(=O)NO	8.22
CCCC[C@@H](C(=O)N1CCC[C@H]1C(=O)NC(C)(C)CC)[C@H](O)C(=O)NO	8.1
CCCC[C@@H](C(=O)N1CCCC[C@H]1C(=O)NCCC)[C@H](O)C(=O)NO	8.17
C=CCNC(=O)[C@@H]1CCCN1C(=O)[C@H](CCCC)[C@@H](F)C(=O)NO	7.8
CCCC[C@H](CC(=O)NO)C(=O)N1CCC[C@H]1C(=O)Nc1nc(-c2ccccc2)cs1	8.04

Now let's try a different one.
Hello, please tell me recorded pIC50 for this one: `CCCCNC(=O)[C@@H]1CCCN1C(=O)[C@H](CCCC)[C@H](F)C(=O)NO` 7.8
